Think of 80 °C as a floor: if melting point stands on it or above, it is t; beneath it, f.

[
  {
    "Compound": "CCC1(CC)C(=O)NC(=O)NC1=O",
    "Qualitative label": "t"
  },
  {
    "Compound": "COc1c(Cl)c(Cl)c(Cl)c(Cl)c1Cl",
    "Qualitative label": "t"
  },
  {
    "Compound": "O=C(O)C(F)(F)C(F)(F)C(=O)O",
    "Qualitative label": "t"
  },
  {
    "Compound": "COc1c(Cl)ccc(Cl)c1Cl",
    "Qualitative label": "f"
  },
  {
    "Compound": "CCC(CO)(CO)[N+](=O)[O-]",
    "Qualitative label": "f"
  },
  {
    "Compound": "N#CNC(=N)N",
    "Qualitative label": "t"
  },
  {
    "Compound": "CC#Cc1cc(C)nc(Nc2ccccc2)n1",
    "Qualitative label": "t"
  },
  {
    "Compound": "N#CC(CCc1ccc(Cl)cc1)(Cn1cncn1)c1ccccc1 (stereo not drawn)",
    "Qualitative label": "t"
  },
  {
    "Compound": "CC(=O)OCC(=O)[C@@]1(O)[C@H](OC(C)=O)C[C@H]2[C@@H]3CCC4=CC(=O)C=C[C@]4(C)[C@@]3(F)[C@@H](O)C[C@@]21C",
    "Qualitative label": "t"
  },
  {
    "Compound": "CCOC(=O)c1c(C)cc(O)cc1O",
    "Qualitative label": "t"
  },
  {
    "Compound": "Cc1ccc(C)c(C)c1C",
    "Qualitative label": "f"
  }
]

Values compiled from the OPERA property sets (Mansouri et al. 2018).
